biological target: Bcl-2 protein (Recombinant Human Bcl-2 Protein) (Homo sapiens); construct: purchased Novus NBP2-34889; test: Binding evaluation of mixture library compounds to Bcl-2 using AS-MS (affinity selection mass spectrometry); conditions: n = 2
Sequence (P10415 whole entry): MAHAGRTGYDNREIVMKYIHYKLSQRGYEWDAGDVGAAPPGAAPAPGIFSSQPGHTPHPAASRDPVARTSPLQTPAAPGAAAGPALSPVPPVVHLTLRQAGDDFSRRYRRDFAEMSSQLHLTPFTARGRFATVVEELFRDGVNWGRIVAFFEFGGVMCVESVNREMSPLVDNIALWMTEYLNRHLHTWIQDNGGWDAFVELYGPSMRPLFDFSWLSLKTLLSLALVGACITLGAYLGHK
value-type: ASMS ratio (%)
Write down the numeric answer in % and omit the unit.

Give the reported value of ASMS ratio (%) for this record: "CCOc1cccc(-c2ccc(CN3CCN(c4ccc(C(=O)NS(C)(=O)=O)nn4)CC3)cc2F)c1"
0.0

Give the reported value of ASMS ratio (%) for this record: "CCOc1cccc(-c2ccc(CN3CCN(c4ccc(C(=O)NS(=O)(=O)c5ccc(NCCSc6ccccc6)c(C(F)(F)F)c5)cc4)CC3)c(CC)c2)c1"
−5.5

Give the reported value of ASMS ratio (%) for this record: "CCOc1cccc(C#Cc2ccccc2CN2CCN(c3ccc(C(=O)NS(=O)(=O)CCC(F)(F)F)nn3)CC2)c1"
0.0

Give the reported value of ASMS ratio (%) for this record: "CCOc1cccc(-c2ccc(C(=O)N3CCN(c4ccc(C(=O)NS(=O)(=O)C(C)(C)C)nn4)CC3)c3ccccc23)c1"
0.0

Give the reported value of ASMS ratio (%) for this record: "CCOc1cncc(-c2ccc(CN3CCN(c4ccc(C(=O)NS(=O)(=O)c5ccc(NCCSc6ccccc6)c(C(F)(F)F)c5)nn4)CC3)cc2F)c1"
11.7

Give the reported value of ASMS ratio (%) for this record: "CCOc1cccc(-c2cnn(-c3cc(C(=O)N4CCN(c5ccc(C(=O)NS(=O)(=O)c6ccc(NCCSc7ccccc7)c(C(F)(F)F)c6)cc5)CC4)cc(C(F)(F)F)c3)c2)c1"
−9.0

Give the reported value of ASMS ratio (%) for this record: "CCOc1cncc(-c2cc(CN3CCN(c4ccc(C(=O)NS(=O)(=O)c5ccc(NCCSc6ccccc6)c(C(F)(F)F)c5)cc4)CC3)cc(OC(C)C)c2)c1"
4.8

Give the reported value of ASMS ratio (%) for this record: "CCOc1cncc(-c2cc(CN3CCN(c4ccc(C(=O)NS(=O)(=O)C(C)(C)C)cc4)CC3)cc(OCC)c2)c1"
0.0

Give the reported value of ASMS ratio (%) for this record: CCOc1cncc(-c2ccc(C(C)N3CCN(c4ccc(C(=O)NS(=O)(=O)CCC(F)(F)F)cc4)CC3)c(F)c2)c1 (stereo not drawn)
0.0

---

target: Bcl-2 protein (Recombinant Human Bcl-2 Protein) (Homo sapiens); construct: purchased Novus NBP2-34889; test: Binding evaluation of mixture library compounds to Bcl-2 using AS-MS (affinity selection mass spectrometry); settings: AS-MS on the mixture of 1200 library compounds; ASMS Ratio(%)=(A−C)/B×100; replicate n = 1
Consider the following molecules; for each one, report its ASMS ratio (%) n = 1.
Write down the numeric answer in % and omit the unit.

Return reported ASMS ratio (%) n = 1 for target or system Bcl-2 protein (Recombinant Human Bcl-2 Protein) (Homo sapiens), item "CCOc1cncc(-c2cc(CN3CCN(c4ccc(C(=O)Nc5ccc(OC)cc5)nn4)CC3)cc(C(F)(F)F)c2)c1" .
3.1

Return reported ASMS ratio (%) n = 1 for target or system Bcl-2 protein (Recombinant Human Bcl-2 Protein) (Homo sapiens), item "CCOc1cccc(-c2csc(CN3CCN(c4ccc(C(=O)N(C)CC56CC7CC(CC(C7)C5)C6)cc4)CC3)c2)c1" .
−7.3

Return reported ASMS ratio (%) n = 1 for target or system Bcl-2 protein (Recombinant Human Bcl-2 Protein) (Homo sapiens), item "CCOc1cccc(-c2cc(CN3CCN(c4ccc(C(=O)N(C)CC56CC7CC(CC(C7)C5)C6)cc4)CC3)cc(OCC)c2)c1" .
10.8

Return reported ASMS ratio (%) n = 1 for target or system Bcl-2 protein (Recombinant Human Bcl-2 Protein) (Homo sapiens), item "CCOc1cncc(-c2csc(C(=O)N3CCN(c4ccc(C(=O)N(C)CC56CC7CC(CC(C7)C5)C6)nn4)CC3)c2)c1" .
1.9

Return reported ASMS ratio (%) n = 1 for target or system Bcl-2 protein (Recombinant Human Bcl-2 Protein) (Homo sapiens), item "CCOc1cccc(-c2ccc(C(=O)N3CCN(c4ccc(C(=O)Nc5ccc(OC)cc5)nn4)CC3)cc2C)c1" .
0.0

Return reported ASMS ratio (%) n = 1 for target or system Bcl-2 protein (Recombinant Human Bcl-2 Protein) (Homo sapiens), item "CCOc1cncc(-c2ccc(CN3CCN(c4ccc(C(=O)N(CC)CC)cc4)CC3)c(CC)c2)c1" .
2.1
